Data origin, for the record: patent US7312188B2

# inhibition at 2 µM listing for each entry below
- system: recombinant human BACE-1 (rhBACE-1) (Homo sapiens)
- Construct: expressed as only an extracellular region (amino acid 1-460 residues) of recombinant human β-secretase; His tag (C); purchased R&D systems (Minneapolis, Minn.); host or cells: murine myeloma cell line NS0
- Sequence (P56817 22-460 limits assumed): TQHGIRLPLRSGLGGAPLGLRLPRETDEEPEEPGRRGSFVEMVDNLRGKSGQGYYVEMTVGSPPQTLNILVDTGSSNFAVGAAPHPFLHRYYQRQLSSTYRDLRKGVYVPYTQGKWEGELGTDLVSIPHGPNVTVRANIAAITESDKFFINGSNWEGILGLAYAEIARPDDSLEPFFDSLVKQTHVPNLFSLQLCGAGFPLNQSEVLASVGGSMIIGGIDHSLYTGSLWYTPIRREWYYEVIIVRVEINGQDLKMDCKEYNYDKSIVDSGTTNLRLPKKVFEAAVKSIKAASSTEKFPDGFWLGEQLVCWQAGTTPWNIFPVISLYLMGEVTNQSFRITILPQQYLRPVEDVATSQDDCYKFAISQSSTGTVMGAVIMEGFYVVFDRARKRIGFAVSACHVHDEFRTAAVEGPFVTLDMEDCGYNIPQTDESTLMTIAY
- assay: BACE1 inhibitory activity, reverse phase HPLC quantitation of N-terminal fragment of fluorogenic substrate
- Assay type: biochemical
- run parameters: 1 μL of inhibitor solution in DMSO (100 μM) in 50 μL reaction; MES buffer pH 5.0; 37° C., 60 minutes
- Description: Experiment Regarding Measurement of BACE1 Inhibitory Activity Enzyme Used in Measurement As an enzyme having β-secretase activity, recombinant human BACE-1 (rhBACE-1) purchased from R&D systems (Minneapolis, Minn.) was used. rhBACE-1 is expressed as only an extracellular region (amino acid 1-460 residues) of recombinant human β-secretase, with a His tag at its carboxyl terminal in murine myeloma cell line, NS0. […]
recorded endpoint: inhibition at 2 µM (%)

query smiles	unit of measurement	result
CC(C)[C@H](NC(=O)[C@@H](N)CCC(=O)O)C(=O)N[C@@H](Cc1cc2ccccc2[nH]1)C(=O)N[C@@H](Cc1ccccc1)[C@@H](O)C(=O)Nc1cccc(C(=O)O)c1	%	71.3
CCSC[C@H](NC(=O)[C@@H](NC(=O)[C@@H](N)CCC(=O)O)C(C)C)C(=O)N[C@@H](Cc1ccccc1)[C@@H](O)C(=O)Nc1cccc(C(=O)O)c1	%	68.1
CC(C)C[C@H](NC(=O)[C@@H](NC(=O)[C@@H](N)CNC(=O)c1ccc[nH]1)C(C)C)C(=O)N[C@@H](Cc1ccccc1)[C@@H](O)C(=O)Nc1cccc(C(=O)O)c1	%	69

----------
- system: recombinant human BACE-1 (rhBACE-1) (Homo sapiens)
- Construct: expressed as only an extracellular region (amino acid 1-460 residues) of recombinant human β-secretase; His tag (C); purchased R&D systems (Minneapolis, Minn.); host or cells: murine myeloma cell line NS0
- assay: BACE1 inhibitory activity, reverse phase HPLC quantitation of N-terminal fragment of fluorogenic substrate
- Type: biochemical
- run parameters: 1 μL of inhibitor solution in DMSO (100 μM) in 50 μL reaction; MES buffer pH 5.0; 37° C., 60 minutes
- From the text: Experiment Regarding Measurement of BACE1 Inhibitory Activity Enzyme Used in Measurement As an enzyme having β-secretase activity, recombinant human BACE-1 (rhBACE-1) purchased from R&D systems (Minneapolis, Minn.) was used. rhBACE-1 is expressed as only an extracellular region (amino acid 1-460 residues) of recombinant human β-secretase, with a His tag at its carboxyl terminal in murine myeloma cell line, NS0. […]
Numbered stars: 1 amine (or outer) side, 2 acyl side, 3 side chain; on linkers, the order of the positions; unused ones are H or OH. Square brackets hold non-standard residues; d marks the D form. Peptide text beside a SMILES is read from it. * marks the point of attachment. β3hPhe(2R-OH) = O=C([C@H](O)[C@H](Cc1ccccc1)N[*:1])[*:2]; Benzoyl(3-COOH) = O=C(O)c1cccc(C(=O)*)c1; Dap = NC[C@H](N)C(=O)O
# inhibition at 2 µM listing for each entry below
recorded endpoint: inhibition at 2 µM (%)

compound	recorded endpoint	unit of measurement	result
CNC(=O)c1cc(NC(=O)[C@H](O)[C@H](Cc2ccccc2)NC(=O)[C@H](CC(C)C)NC(=O)[C@@H](NC(=O)[C@@H](N)CCC(=O)O)C(C)C)cc(C(=O)NC)c1	inhibition at 2 µM	%	51.4
CC(C)C[C@H](NC(=O)[C@@H](NC(=O)[C@@H](N)CCC(=O)O)C(C)C)C(=O)N[C@@H](Cc1ccccc1)[C@@H](O)C(=O)Nc1cc(Cl)c(O)c(Cl)c1	inhibition at 2 µM	%	80.1
CC(C)C[C@H](NC(=O)[C@@H](NC(=O)[C@@H](N)CNC(=O)c1cccc(C(=O)O)c1)C(C)C)C(=O)N[C@@H](Cc1ccccc1)[C@@H](O)C(=O)N[C@@H](CC(=O)O)C(=O)N[C@@H](C)C(=O)N[C@@H](CCC(=O)O)C(=O)O [Example 84] (H-[Dap](Benzoyl(3-COOH))VL[β3hPhe(2R-OH)]DAE-OH)	inhibition at 2 µM	%	79.1
